mPTP Rat liver pIC50 overview
system: mPTP; experiment: mPTP activity (Ca2+ retention) assay in isolated rat liver mitochondria; format: biochemical; details: examples tested by different contract research organisations, believed comparable
No unit in the answer, only the number.

compound=O=C(NCC1(Cc2ccc(F)c(F)c2)CCC1)c1cncc(=O)[nH]1 measured_metric="mPTP Rat liver pIC50" experimental_result=5.73
compound=O=C(NC[C@H](Cc1ccc(F)cc1F)C1CC1)c1ncc(F)c(=O)[nH]1 measured_metric="mPTP Rat liver pIC50" experimental_result=5.72
compound=Cn1nc(C(=O)NCC2(Cc3ccc(F)cc3F)CCC2)[nH]c1=O measured_metric="mPTP Rat liver pIC50" experimental_result=6.79
compound=O=C(NCC1(Cc2c(F)cccc2F)CCC1)c1cncc(=O)[nH]1 measured_metric="mPTP Rat liver pIC50" experimental_result=5.92
compound=Cc1cc(F)ccc1CC1(CNC(=O)c2cncc(=O)[nH]2)CCC1 measured_metric="mPTP Rat liver pIC50" experimental_result=5.7
compound=CCc1ccccc1CC1(CNC(=O)c2nn(C)c(=O)[nH]2)CCC1 measured_metric="mPTP Rat liver pIC50" experimental_result=5.27
compound=Cn1nc(C(=O)NCC2(Cc3ccc(F)cc3C(F)(F)F)CCC2)[nH]c1=O measured_metric="mPTP Rat liver pIC50" experimental_result=5.57
compound="O=C(NCC1(Cc2ccc(F)cc2F)CC12CC2)c1nccc(=O)[nH]1 (single isomer, unassigned) [Example 236]" measured_metric="mPTP Rat liver pIC50" experimental_result=6.11

**Q:** // Input: Cc1cnc(C(=O)NCC(C)(Cc2ccc(F)cc2)C2CC2)[nH]c1=O (single isomer, unassigned) [Example 267] . Output its mPTP Rat liver pIC50 only.
**A:** 6.55

**Q:** Name the recorded mPTP Rat liver pIC50 of the compound listed here: "CC(C)(CNC(=O)c1ccc2oc(=O)[nH]c2c1)Cc1ccccc1"
**A:** 5.43

**Q:** Given "O=C(NCC1(Cc2ccc(F)cc2F)CCC1)c1n[nH]c(=O)o1" , respond with its mPTP Rat liver pIC50.
**A:** 6.05

**Q:** Return mPTP Rat liver pIC50 (reported value) for this compound: Cn1nc(C(=O)NCC(Cc2c(F)cc(F)cc2Cl)C2CC2)[nH]c1=O (stereo not drawn)
**A:** 5.56

**Q:** Supply recorded mPTP Rat liver pIC50 for "O=C(NC[C@H](Cc1cc(F)ccc1F)C1CC1)c1ccc(=O)[nH]n1" here.
**A:** 5.33

**Q:** Give the measured mPTP Rat liver pIC50 for CCC(C)(CNC(=O)c1nn(C)c(=O)[nH]1)Cc1ccccc1 (stereo not drawn)
**A:** 6.23

This collection of values is drawn from patent US12491185B2.
